system-tested: Focal adhesion kinase 1 (Homo sapiens) (UniProt Q05397)
Sequence (Q05397 whole entry, looked up): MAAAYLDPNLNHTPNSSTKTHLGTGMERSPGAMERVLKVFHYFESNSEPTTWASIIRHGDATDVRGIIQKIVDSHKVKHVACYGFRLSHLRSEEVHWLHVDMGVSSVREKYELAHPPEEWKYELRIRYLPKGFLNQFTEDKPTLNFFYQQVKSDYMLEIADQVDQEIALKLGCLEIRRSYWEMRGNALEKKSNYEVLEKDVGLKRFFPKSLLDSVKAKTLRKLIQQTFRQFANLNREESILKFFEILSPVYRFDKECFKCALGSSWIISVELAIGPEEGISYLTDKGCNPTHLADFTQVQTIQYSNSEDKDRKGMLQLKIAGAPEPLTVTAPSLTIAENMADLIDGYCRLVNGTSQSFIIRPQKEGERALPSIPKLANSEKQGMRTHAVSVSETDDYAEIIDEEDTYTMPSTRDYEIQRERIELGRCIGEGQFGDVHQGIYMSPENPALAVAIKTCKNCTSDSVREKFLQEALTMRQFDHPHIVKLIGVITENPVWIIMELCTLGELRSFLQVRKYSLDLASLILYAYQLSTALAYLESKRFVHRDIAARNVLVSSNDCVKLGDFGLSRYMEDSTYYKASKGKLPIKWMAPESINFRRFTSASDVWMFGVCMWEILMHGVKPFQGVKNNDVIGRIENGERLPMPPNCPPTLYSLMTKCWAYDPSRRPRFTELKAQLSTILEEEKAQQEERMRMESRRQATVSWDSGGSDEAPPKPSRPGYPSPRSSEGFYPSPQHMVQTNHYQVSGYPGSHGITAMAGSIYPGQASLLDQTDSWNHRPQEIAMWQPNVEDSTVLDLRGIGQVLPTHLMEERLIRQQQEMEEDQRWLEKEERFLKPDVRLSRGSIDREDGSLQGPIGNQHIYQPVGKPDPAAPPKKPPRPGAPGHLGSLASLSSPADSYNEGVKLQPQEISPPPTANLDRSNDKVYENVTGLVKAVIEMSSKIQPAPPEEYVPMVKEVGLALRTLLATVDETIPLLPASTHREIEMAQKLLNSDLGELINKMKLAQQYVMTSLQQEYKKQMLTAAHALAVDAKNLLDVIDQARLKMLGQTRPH
assay-procedure: small-molecule microarray binders of FAK, primary screen, biochemical, 635/667 nm fluorescence, BSA, DTT (AID 1130);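 further: composite of spot emission at 667 nm and signal to noise over triplicate slides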
experimental-context: PTK2 binding, 635 nm fluorescence, higher = more signal
// label = 1.0 if composite z-score is not less than 0.03, otherwise 0.0

compound | qualitative-label
COC(=O)C=CCCc1coc(C=CCNC(=O)OC)n1 | 1.0
CC(C)=CCCC(C)=CCON=C1C[C@@H](O)[C@@H](O)[C@@H]2[C@@H]3C(=O)N(Cc4ccccc4)C(=O)[C@@H]3CC[C@H]12 | 1.0
CO[C@H](C1CCCCC1)[C@H](C)C=CCC(=O)OCCCc1ccccc1 | 1.0
O=c1n(-c2ccccc2)c(=O)n2n1CC[C@@H]1C(=NOCc3ccccc3)[C@H]3O[C@H]3[C@@H](O)[C@@H]12 | 1.0
CCOC(=O)CCN1C(=O)[C@H]2[C@H]3[C@H](O)[C@H](O)CC(=NNC(=O)OCc4ccccc4)[C@@H]3CC[C@H]2C1=O | 1.0

Ask: Hello, I need to know if CCOC(=O)[C@H](CC(C)C)NC(=O)CCC1CC(OC(=O)NCc2cccc3ccccc23)CC2(CCCC(COC(=O)NCC3CCCCC3)O2)O1 (stereo partly drawn) has measured composite z-score not below 0.03. Thanks!
Reply: 0.0

Ask: Threshold query (composite z-score >= 0.03) on `O=C1[C@H]2[C@H]3[C@H](O)[C@H](O)CC(=NOCc4ccccc4)[C@@H]3CC[C@H]2C(=O)N1Cc1ccc2c(c1)OCO2`
Reply: 1.0

Ask: Kindly determine if composite z-score recorded for `CCOC(=O)NN=C1C[C@@H](O)[C@@H](O)[C@@H]2[C@@H]3C(=O)N(Cc4ccccc4)C(=O)[C@@H]3CC[C@H]12` is above or exactly 0.03.
Reply: 0.0

Ask: Kindly determine if composite z-score recorded for `CO[C@H]1COC(=O)CC=C[C@H](C)[C@@H](OC)COC(=O)[C@@H](C)COC(=O)CC=C[C@@H]1C` is above or exactly 0.03.
Reply: 0.0

Ask: composite z-score >= 0.03 for `C[C@H]1CC[C@H]2C(=O)O[C@H](COc3ccc(C(C)(C)C)cc3)CN2[C@@H]1c1ccc(Br)cc1` ?
Reply: 1.0

Ask: Form field: composite z-score at least 0.03? Entry: `CO[C@H]1COC(=O)[C@@H]2CCCN2C(=O)CC=C[C@@H](C)[C@H](OC)COC(=O)[C@@H](OCc2ccccc2)C=C[C@@H]1C`
Reply: 0.0

Ask: Evaluate `O=C1[C@H]2[C@H]3[C@H](O)[C@H](O)CC(=NOCc4ccccc4)[C@H]3CC[C@H]2C(=O)N1Cc1ccc2c(c1)OCO2` : composite z-score at minimum 0.03?
Reply: 0.0

Ask: Exam item: decide whether the reported composite z-score for `CO[C@H]1COC(=O)CCC[C@@H](C)[C@H](OC)COC(=O)[C@@H]2CCCN2C(=O)CC=C[C@@H]1C` is at least 0.03.
Reply: 0.0

Ask: I'd appreciate it if you could say whether `O=C1C[C@@H](O)[C@@H](O)[C@@H]2[C@@H]3C(=O)N(C[C@@H]4CCCO4)C(=O)[C@@H]3CC[C@H]12` has composite z-score at least equal to 0.03.
Reply: 0.0

Ask: API: above_or_equal(metric=composite z-score, cutoff=0.03) for item `O=C1C[C@@H](O)[C@@H](O)[C@@H]2[C@@H]3C(=O)N(Cc4ccccc4)C(=O)[C@@H]3CC[C@@H]12`
Reply: 1.0
